molecular target: Virion infectivity factor (Human immunodeficiency virus type 1 group M subtype B (isolate BH10)) + Virion infectivity factor (Human immunodeficiency virus type 1 group M subtype B (isolate BRU/LAI)) + Virion infectivity factor (Human immunodeficiency virus type 1 group M subtype B (isolate PCV12)) + Virion infectivity factor (Human immunodeficiency virus type 1 group M subtype B (isolate HXB2)) + DNA dC->dU-editing enzyme APOBEC-3G (Homo sapiens) (UniProt P69720+P69721+P69722+P69723+Q9HC16); experiment: inhibitors of Vif binding to APOBEC3G peptide, primary screen, biochemical, TR-FRET, GST-Vif 1-94, biotin-A3G peptide, dose response retest (AID 1117319); conditions: hits give high values;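 also: Vif residues 1-94 fused to GST binding biotinylated APOBEC3G peptide 110-148; 0% = full assay without inhibitor and 100% = GST in place of GST-Vif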
Out of some 260,000 compounds screened, about 1,500 (0.58%) were called active. Roughly 5% stayed inconclusive and do not appear here. A selection follows. Entries with a potency or affinity are not part of this list.
Give measured inhibition for each item. Keep answers brief.
Numbers only, in %.

Answer for every listed entry: what is its inhibition? The entries follow.
1. CC(=O)c1ccc(N2CCN(C(=O)c3cc(C)on3)CC2)cc1
2. CC(=O)NC(=S)Nc1cc(C(=O)O)ccc1Cl

*A*
1: 11.8; 2: -3.72

Answer for every listed entry: what is its inhibition? The entries follow.
1. CCCCC(=O)NC(=S)Nc1cc(C(=O)O)ccc1OC
2. CN1C(=O)C(N=Nc2ccccc2C(=O)O)N(C)C1=S (centres undefined)

*A*
6.07
30.3

----------
target: Virion infectivity factor (Human immunodeficiency virus type 1 group M subtype B (isolate BH10)) + Virion infectivity factor (Human immunodeficiency virus type 1 group M subtype B (isolate BRU/LAI)) + Virion infectivity factor (Human immunodeficiency virus type 1 group M subtype B (isolate PCV12)) + Virion infectivity factor (Human immunodeficiency virus type 1 group M subtype B (isolate HXB2)) + DNA dC->dU-editing enzyme APOBEC-3G (Homo sapiens) (UniProt P69720+P69721+P69722+P69723+Q9HC16); test: inhibitors of Vif binding to APOBEC3G peptide, primary screen, biochemical, TR-FRET, GST-Vif 1-94, biotin-A3G peptide, dose response retest (AID 1117319); conditions: hits give high values
Among all 260,000 compounds or so, about 1,500 (0.58%) were called active. Another 5% or so got no clear call; they are omitted. The list is a sample of the results. Potency and affinity values are given separately.
recordedMetric: inhibition

Solved entries (count: 2):
>>> print(df.to_string())
                                   molecule     recordedresult
0  O=C(O)c1cccc(-n2cccc2/C=C2/NC(=O)N(c3ccc(Cl)cc3)C2=O)c1  -7.27% (inactive)
1    COc1ccc(C(=O)Nc2ccc3c(c2)OCCO3)c(OC)c1   1.98% (inactive)

Answer for every listed entry: what is its inhibition? The entries follow.
1. O=C(CSc1nc(O)c(C2CCCCC2)c(=O)[nH]1)NCC1CCCO1 (centres undefined)
2. Cc1c(C(=O)O)cccc1-c1ccc(/C=C2/NC(=O)N(c3ccccc3)C2=O)o1

*A*
["14.4% (inactive)", "18.3% (inactive)"]

----------
Give measured inhibition for each item. Keep answers brief.
target: Virion infectivity factor (Human immunodeficiency virus type 1 group M subtype B (isolate BH10)) + Virion infectivity factor (Human immunodeficiency virus type 1 group M subtype B (isolate BRU/LAI)) + Virion infectivity factor (Human immunodeficiency virus type 1 group M subtype B (isolate PCV12)) + Virion infectivity factor (Human immunodeficiency virus type 1 group M subtype B (isolate HXB2)) + DNA dC->dU-editing enzyme APOBEC-3G (Homo sapiens) (UniProt P69720+P69721+P69722+P69723+Q9HC16); experiment: inhibitors of Vif binding to APOBEC3G peptide, primary screen, biochemical, TR-FRET, GST-Vif 1-94, biotin-A3G peptide, dose response retest (AID 1117319); settings: hits give high values
The whole screen tested about 260,000 compounds, of which about 1,500 (0.58%) were called active. Not shown: some 5% with an inconclusive outcome. Not all results are given here. Measured potencies and affinities stand elsewhere.
Numbers only, in %.

Solved entries (count: 5):
>>> print(df.to_string())
                                   molecule  recordedmetric  unitlabel  recordedresult
0  COc1ccccc1N1CCN(C(=O)c2coc(=O)c(Br)c2)CC1      inhibition          %            27.6
1  O=C(O)C(Cc1ccccc1)N1C(=O)/C(=C/c2cccs2)SC1=S (stereo unspecified)      inhibition          %            24.3
2           O=C(c1ccc(Br)cc1)N1CCCc2ccccc21      inhibition          %            4.85
3               O=C(c1ccccc1)N1CCCc2ccccc21      inhibition          %            16.3
4               CCOc1ccccc1OCC(=O)NC1CCCCC1      inhibition          %           -0.58

Consider the record given below.
*Q* Please give the measured inhibition for this molecule: `O=C(NC(=S)N1CCCc2ccccc21)c1ccc(Br)cc1`
*A* -10.8

----------
biological target: Virion infectivity factor (Human immunodeficiency virus type 1 group M subtype B (isolate BH10)) + Virion infectivity factor (Human immunodeficiency virus type 1 group M subtype B (isolate BRU/LAI)) + Virion infectivity factor (Human immunodeficiency virus type 1 group M subtype B (isolate PCV12)) + Virion infectivity factor (Human immunodeficiency virus type 1 group M subtype B (isolate HXB2)) + DNA dC->dU-editing enzyme APOBEC-3G (Homo sapiens) (UniProt P69720+P69721+P69722+P69723+Q9HC16); experiment: inhibitors of Vif binding to APOBEC3G peptide, primary screen, biochemical, TR-FRET, GST-Vif 1-94, biotin-A3G peptide, dose response retest (AID 1117319); conditions: hits give high values;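 also: Vif residues 1-94 fused to GST binding biotinylated APOBEC3G peptide 110-148; 0% = full assay without inhibitor and 100% = GST in place of GST-Vif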
Hit rate of the full screen: of about 260,000 compounds, about 1,500 (0.58%) were called active. Not shown: some 5% with an inconclusive outcome. A selection follows. Entries with a potency or affinity are not part of this list.
Give measured inhibition for each item. Keep answers brief.
Answers are plain numbers, in %.

>>> df
                                   compound  recordedmetric  unitlabel  recordedresult
0  COc1ccccc1N1CCN(C(=O)CSc2nnc(NC(=O)C3CC3)s2)CC1      inhibition          %            9.27

Answer for every listed entry: what is its inhibition? The entries follow.
1. Nc1nc(N)c2c(n1)CN(Cc1ccc(Cl)cc1)C2
2. CC(=O)Nc1ccc(N2C(=O)CC(Sc3nc(C)cc(C)n3)C2=O)cc1 (stereo not given)
3. COc1ccc(C(=O)OCC(=O)Nc2ncc([N+](=O)[O-])s2)cc1OC
4. COC(=O)c1ccc2c(=O)[nH]c(CN3c4ccccc4CC3C)nc2c1 (stereo not given)

*A*
1. -2.69
2. 2.02
3. 5.33
4. 8.14

----------
Give measured inhibition for each item. Keep answers brief.
target: Virion infectivity factor (Human immunodeficiency virus type 1 group M subtype B (isolate BH10)) + Virion infectivity factor (Human immunodeficiency virus type 1 group M subtype B (isolate BRU/LAI)) + Virion infectivity factor (Human immunodeficiency virus type 1 group M subtype B (isolate PCV12)) + Virion infectivity factor (Human immunodeficiency virus type 1 group M subtype B (isolate HXB2)) + DNA dC->dU-editing enzyme APOBEC-3G (Homo sapiens) (UniProt P69720+P69721+P69722+P69723+Q9HC16); experiment: inhibitors of Vif binding to APOBEC3G peptide, primary screen, biochemical, TR-FRET, GST-Vif 1-94, biotin-A3G peptide, dose response retest (AID 1117319); settings: hits give high values;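 also: Vif residues 1-94 fused to GST binding biotinylated APOBEC3G peptide 110-148; 0% = full assay without inhibitor and 100% = GST in place of GST-Vif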
Among all 260,000 compounds or so, about 1,500 (0.58%) were called active. Inconclusive results (about 5%) are left out. These entries were drawn from the full list. Potency and affinity values are given separately.
Numbers only, in %.

Solved entries (count: 3):
In [3]: df
Out[3]:
                                   compound  unitlabel  recordedresult
0  O=C(Nc1cccc(-c2nnc(-c3ccco3)o2)c1)c1ccccc1          %           -5.38
1          O=C(Nc1ccccc1)c1cccc(C(F)(F)F)c1          %            0.71
2  CCN(Cc1ccc(NC(C)=O)cc1)CC1CCCN(CCc2cccc(OC)c2)C1 (centres undefined)          %            3.62

Consider the record given below.
*Q* Please give the measured inhibition for this compound: `CN(C)c1ccc(C=c2c3ccccc3n3c2c2c([n+]3C)CCCC2)cc1`
*A* 26.6

----------
target: Virion infectivity factor (Human immunodeficiency virus type 1 group M subtype B (isolate BH10)) + Virion infectivity factor (Human immunodeficiency virus type 1 group M subtype B (isolate BRU/LAI)) + Virion infectivity factor (Human immunodeficiency virus type 1 group M subtype B (isolate PCV12)) + Virion infectivity factor (Human immunodeficiency virus type 1 group M subtype B (isolate HXB2)) + DNA dC->dU-editing enzyme APOBEC-3G (Homo sapiens) (UniProt P69720+P69721+P69722+P69723+Q9HC16); experiment: inhibitors of Vif binding to APOBEC3G peptide, primary screen, biochemical, TR-FRET, GST-Vif 1-94, biotin-A3G peptide, dose response retest (AID 1117319); settings: hits give high values;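 also: Vif residues 1-94 fused to GST binding biotinylated APOBEC3G peptide 110-148; 0% = full assay without inhibitor and 100% = GST in place of GST-Vif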
Screen size: about 260,000 compounds; about 1,500 (0.58%) were called active. Roughly 5% stayed inconclusive and do not appear here. These entries were drawn from the full list. Results with a measured potency or affinity are listed apart.
Give measured inhibition for each item. Keep answers brief.
Give bare numbers, in %.

>>> df
                                   compound  recordedmetric  recordedresult
0  CC(=O)N1Cc2ccccc2C(C)CC12CCCC2 (stereo not drawn)      inhibition           -6.77

Answer for every listed entry: what is its inhibition? The entries follow.
1. Fc1ccc(CNc2nc(-c3ccco3)cc(C(F)(F)F)n2)cc1
2. Cc1ccccc1N(C=O)c1ccccc1C

*A*
1. 9.71
2. -8.26
